- Tested system: Receptor-type tyrosine-protein kinase FLT3 (Homo sapiens, UniProt P36888)
- Sequence (P36888 whole entry): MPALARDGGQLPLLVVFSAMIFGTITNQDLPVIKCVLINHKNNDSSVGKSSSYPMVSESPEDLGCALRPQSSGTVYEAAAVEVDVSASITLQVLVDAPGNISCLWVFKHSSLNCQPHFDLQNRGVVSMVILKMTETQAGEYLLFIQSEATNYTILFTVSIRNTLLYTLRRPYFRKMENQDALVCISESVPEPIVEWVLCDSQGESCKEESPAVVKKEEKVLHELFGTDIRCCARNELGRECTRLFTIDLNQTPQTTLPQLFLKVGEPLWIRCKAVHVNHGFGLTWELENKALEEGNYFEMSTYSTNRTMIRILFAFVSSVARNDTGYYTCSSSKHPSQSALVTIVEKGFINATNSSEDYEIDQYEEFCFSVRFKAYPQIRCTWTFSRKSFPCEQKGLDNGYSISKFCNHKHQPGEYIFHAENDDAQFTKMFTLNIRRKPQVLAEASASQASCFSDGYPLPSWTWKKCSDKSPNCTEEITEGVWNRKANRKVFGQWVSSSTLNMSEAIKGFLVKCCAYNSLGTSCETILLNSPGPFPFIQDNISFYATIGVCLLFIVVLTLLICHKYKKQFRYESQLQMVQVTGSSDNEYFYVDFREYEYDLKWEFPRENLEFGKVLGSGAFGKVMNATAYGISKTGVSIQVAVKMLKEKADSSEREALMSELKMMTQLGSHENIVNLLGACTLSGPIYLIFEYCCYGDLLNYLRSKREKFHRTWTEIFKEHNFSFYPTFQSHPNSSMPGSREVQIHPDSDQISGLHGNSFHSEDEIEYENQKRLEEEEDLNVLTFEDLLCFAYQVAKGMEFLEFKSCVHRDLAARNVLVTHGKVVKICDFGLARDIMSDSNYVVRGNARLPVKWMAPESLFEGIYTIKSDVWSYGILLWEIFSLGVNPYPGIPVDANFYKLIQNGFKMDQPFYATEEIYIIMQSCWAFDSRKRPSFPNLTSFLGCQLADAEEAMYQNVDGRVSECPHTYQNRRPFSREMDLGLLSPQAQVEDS
IC50 for assorted compounds
# value in nM; strip the unit string

Use the examples below as a reference point.
[
  {
    "Compound structure string": "COc1ccc(NC(=O)CC(=O)Nc2ccc3c(c2)NC(=O)/C3=C\\c2ccc[nH]2)cc1",
    "IC50 / nM": 16.6
  },
  {
    "Compound structure string": "COc1ccc(NC(=O)CC(=O)Nc2ccc3c(c2)NC(=O)/C3=C\\c2[nH]c(C)c(C(=O)NCCN3CCCC3)c2C)cc1",
    "IC50 / nM": 2.1
  }
]

Let us move to another entry and its IC50.
# input Tell us which IC50 value is on record for `O=C(CC(=O)Nc1ccc2c(c1)NC(=O)/C2=C\c1ccc[nH]1)Nc1ccc(F)cc1`
# output 11
